Provide the recorded cytotoxicity at 70.5 h for the entries that follow.
- protocolNotes: Human HepG2 cell viability assay in 384 well format
- Format: toxicity, cell-based
- Parameters: dose 125 nL, time 70.5 hour; concentration not given beside the values
- measurementConditions: HepG2 cells, read-out: Inhibition
Answers are plain numbers, in %.

{"compound": "Cc1cccc(CN(Cc2nc3c(cnn3C)c(=O)[nH]2)C2CC2)c1", "cytotoxicity at 70.5 h, %": -6.88}
{"compound": "Cc1cc(C)n(CC(=O)NC(Cc2ccsc2)c2ccccn2)c(=O)n1 (configuration not stated)", "cytotoxicity at 70.5 h, %": 13.9}
{"compound": "O=S(=O)(CCCN1CCCCC1Cn1cncn1)c1ccccc1 (configuration not stated)", "cytotoxicity at 70.5 h, %": -4.13}
{"compound": "Cc1cc(C)nc(N2CCN(Cc3cc4n(n3)CCNC4)CC2)n1", "cytotoxicity at 70.5 h, %": -8.76}
{"compound": "COC(=O)[C@H]1C[C@@H](O)CCN1S(=O)(=O)c1ccc(F)cc1F", "cytotoxicity at 70.5 h, %": 21.8}
{"compound": "NC(=O)N1CCC2(CC1)CN(Cc1cccnc1)C(=O)CO2", "cytotoxicity at 70.5 h, %": -7.6}
{"compound": "CNS(=O)(=O)CC1CCCN1c1ccc(Cl)cn1 (configuration not stated)", "cytotoxicity at 70.5 h, %": -1.45}
{"compound": "Cc1cc(-c2cnn(CCNC(=O)C3CCCO3)c2C2CC2)on1 (configuration not stated)", "cytotoxicity at 70.5 h, %": -9.36}

Count: 4. Required value per item: cytotoxicity at 70.5 h.
1. CC(C)c1cc(C(=O)N(Cc2ccncc2)CC2CCCO2)no1 (configuration not stated)
2. COc1c(CNCc2cccnc2N2CCCCC2)c(C)nn1C
3. Cc1ccc(-c2nc(C3CCN(C(=O)c4ccnn4C)CC3)no2)cn1
4. Cc1ncsc1C(=O)N(C)CCc1ccncc1

-6.68
2.37
-7.4
-2.51

----------
- protocolNotes: Human HepG2 cell viability assay in 384 well format
- Type: toxicity, cell-based
- Parameters: dose 125 nL, time 70.5 hour; concentration not given beside the values
- measurementConditions: HepG2 cells, read-out: Inhibition
Provide the recorded cytotoxicity at 70.5 h for the entries that follow.
Answers are plain numbers, in %.

Study these solved cases before continuing.
{"compound": "Cc1ccc(N2CCC(c3nccn3Cc3cscn3)CC2)nn1", "unitOfMeasure": "%", "cytotoxicity at 70.5 h": 0.241}
{"compound": "COCC(NC(=O)NCc1sc(C)nc1C)c1ccco1 (configuration not stated)", "unitOfMeasure": "%", "cytotoxicity at 70.5 h": 7.86}
{"compound": "COc1ncccc1CN1CCC2(CC1)CN(c1ccccn1)CCO2", "unitOfMeasure": "%", "cytotoxicity at 70.5 h": -6.12}
{"compound": "Cc1nc(N2CCOCC2)nc2c1CN(CC(=O)N(C)C)CC2", "unitOfMeasure": "%", "cytotoxicity at 70.5 h": -13.5}
{"compound": "CCc1nc2n(n1)CC(NCc1cc3ccccc3o1)CC2 (configuration not stated)", "unitOfMeasure": "%", "cytotoxicity at 70.5 h": -8.62}

Count: 7. Required value per item: cytotoxicity at 70.5 h.
1. Cc1cc(CN(C)C(=O)CC(C)C)no1
2. O=C(NCCc1cccc(Cl)c1)C1CCOCC1
3. COc1ccc(CN(C)C(=O)c2nnc(CN(C)C)o2)cc1
4. O=S(=O)(c1cn[nH]c1)N1CCCC1c1cc[nH]n1 (configuration not stated)
5. CN(CCS(=O)(=O)c1cc(Cl)ccc1Cl)CC(N)=O
6. Cc1cc(Cc2ccccc2F)cc(C2CCCNC2)n1 (configuration not stated)
7. CC(C)CC1SCC(=O)Nc2c1cnn2C1CCCC1 (configuration not stated)

[-2.9, 0.784, -3.32, -7.61, -0.37, -1.65, -18.7]

----------
- protocolNotes: Human HepG2 cell viability assay in 384 well format
- Assay type: toxicity, cell-based
- Parameters: dose 125 nL, time 70.5 hour; concentration not given beside the values
- measurementConditions: HepG2 cells, read-out: Inhibition
measurementType: cytotoxicity at 70.5 h (%)
One number for each entry, in %.

Study these solved cases before continuing.
{"compound": "Cc1csc(CNC(=O)N(C)Cc2ccncc2)n1", "cytotoxicity at 70.5 h / %": -0.603}
{"compound": "O=C(N1CCOCC1)N1CCc2ncnc(NC3CCC3)c2CC1", "cytotoxicity at 70.5 h / %": -14.5}
{"compound": "CN1CCCCC[C@@H]2[C@@H]1[C@H](c1ccccc1)CN2C(=O)c1ccccn1", "cytotoxicity at 70.5 h / %": -1.6}
{"compound": "CC(=O)N1CCC(c2cc3c(ncn3C)c(-c3cnn(C)c3)n2)CC1", "cytotoxicity at 70.5 h / %": -8.6}
{"compound": "CCN1CCn2c(C)cnc2C12CCN(C(=O)COC)CC2", "cytotoxicity at 70.5 h / %": 25}

Count: 2. Required value per item: cytotoxicity at 70.5 h.
1. CCc1nnc2n1CC(CNCc1ccncc1)CC2 (configuration not stated)
2. Cn1cc(CN2CC(C(=O)Nc3ccccc3)C3(CCOCC3)C2)cn1 (configuration not stated)

1: -6.39; 2: -9.91

----------
- protocolNotes: Human HepG2 cell viability assay in 384 well format
- Format: toxicity, cell-based
- Parameters: dose 125 nL, time 70.5 hour; concentration not given beside the values
- measurementConditions: HepG2 cells, read-out: Inhibition
Provide the recorded cytotoxicity at 70.5 h for the entries that follow.
I'd appreciate it if you wrote the number followed by its unit.

Study these solved cases before continuing.
{"compound": "CN(C)CCN(Cc1ccc(Cl)cc1)C(=O)c1cc[nH]n1", "cytotoxicity at 70.5 h": "-3.35%"}
{"compound": "O=C(CN1CC(c2nc(-c3cccs3)no2)C1)NCC1CCCO1 (stereo not drawn)", "cytotoxicity at 70.5 h": "-2.94%"}
{"compound": "COc1c(C)cnc(CN2CCn3c(nnc3C(C)C)C2)c1C", "cytotoxicity at 70.5 h": "-1.82%"}
{"compound": "CC(=O)N1C[C@H]2C3(CCN(S(C)(=O)=O)CC3)CC[C@@]2(C(=O)N(C)C)C1", "cytotoxicity at 70.5 h": "-8.99%"}
{"compound": "COc1cccc(CNC(=O)CCNS(=O)(=O)c2ccc(C)cc2)c1", "cytotoxicity at 70.5 h": "-3.42%"}
{"compound": "OCCn1nccc1C1CCN(CCOc2ccccc2F)CC1", "cytotoxicity at 70.5 h": "-2.7%"}
{"compound": "COCCN1C(=O)[C@H]2CC[C@@H]1CN(S(=O)(=O)c1ccc(OC)cc1)C2", "cytotoxicity at 70.5 h": "-3.09%"}
{"compound": "Cc1ccn(-c2ccc(NCc3cccnc3N3CCCCC3)nn2)n1", "cytotoxicity at 70.5 h": "12.6%"}

Count: 7. Required value per item: cytotoxicity at 70.5 h.
1. CCN(Cc1nc(COC)no1)Cc1cccnc1NC
2. COc1c[nH]c(C(=O)Nc2nc(C(C)(C)C)cs2)cc1=O
3. CCOc1ccc(CNCCCn2ccnc2)cc1Br
4. Cc1ccc2c(c1)C1(CCN(C(N)=O)CC1)CN2CC1CC1
5. CC(=O)N1CCCC1C(=O)NCCOc1c(C)cccc1C (stereo not drawn)
6. CCn1cnnc1CCNC(=O)c1ccc(Br)cc1F
7. O=C(Nc1cccnc1N1CCSCC1)c1ccc2c(c1)CCC2

1: -21.9%; 2: -0.552%; 3: 6.06%; 4: -1.07%; 5: -1.77%; 6: -4.19%; 7: -3.24%

Count: 5. Required value per item: cytotoxicity at 70.5 h.
1. CSCC(=O)N1C[C@H]2CC[C@@H]1CN(C1Cc3ccccc3C1)C2
2. COCCCC1(C(=O)O)CCCN(Cc2cc3c(cc2C)OCCO3)C1 (stereo not drawn)
3. CC(c1ccccc1)n1c(SCC(=O)O)nnc1-c1ccn[nH]1 (stereo not drawn)
4. O=C(c1cccc2c1OCCO2)N1CCCC(n2ccnc2)C1 (stereo not drawn)
5. Cc1ccc(C2COCCN2C(=O)c2ccc(F)c(F)c2)o1 (stereo not drawn)

1. -9.76%
2. -8.65%
3. -5.88%
4. -5.73%
5. -0.394%

Count: 6. Required value per item: cytotoxicity at 70.5 h.
1. O=C1CC[C@H](C(=O)Nc2cnn(-c3ccccc3Br)c2)N1
2. O=C(C1CCOCC1)N(CCc1ccccc1)C1CCOC1 (stereo not drawn)
3. CC(=O)N1CCC(C(=O)NCCN2CCCC(C)C2)CC1 (stereo not drawn)
4. NCC1(c2cccc(C(F)(F)F)c2)CCCC1
5. CCC(C(=O)N(Cc1ccccc1OC)C1CC1)n1cccn1 (stereo not drawn)
6. Cc1cccc(Cl)c1NC(=O)Cn1cc(C(=O)O)ccc1=O

1: -16.8%; 2: 8.62%; 3: -7.29%; 4: 15.4%; 5: -10.3%; 6: -2.75%
